test system: C. difficile; assay: agar dilution MIC assay of anaerobic bacteria; format: cell-based, Clostridium difficile; details: Clostridioides difficile, C. diff. Strain no. 19683, Table 4; read-out: MIC
Kindly state MIC for each of the entries shown.
One number for each entry, in µg/mL.

compound	measurement target	unit label	MIC
CN[C@H](CC(C)C)C(=O)N[C@H]1C(=O)N[C@@H](CC(N)=O)C(=O)N[C@H]2C(=O)N[C@H]3C(=O)N[C@H](C(=O)N[C@H](C(=O)O)c4cc(O)cc(O)c4-c4cc3ccc4O)[C@H](O)c3ccc(c(Cl)c3)Oc3cc2cc(c3O[C@@H]2O[C@H](CO)[C@@H](O)[C@H](O)[C@H]2O[C@H]2C[C@](C)(N)[C@H](O)[C@H](C)O2)Oc2ccc(cc2Cl)[C@H]1O [vancomycin, reference compound]	C. difficile	µg/mL	8
Cc1ncc([N+](=O)[O-])n1CCO [metronidazole, reference compound]	C. difficile	µg/mL	2
O=c1[nH]c(NCc2ccc(Cl)c(Cl)c2)nc2ncn(CCCCCN3CCOCC3)c12 [Compound 359E]	C. difficile	µg/mL	8

For the next question, use this compound.
stdin: Please report MIC with C. difficile for item O=c1[nH]c(NCc2ccc(Cl)c(Cl)c2)nc2ncn(CCCCN3CCOCC3)c12 [Compound 258D] .
stdout: 8
